systemName: RBDSARS-CoV-2 (SARS-CoV-2 S protein residues 319-539, C-terminal His-tag) (SARS-CoV-2, UniProt P0DTC2 319-539)
assayName: ELISA
pIC50: −log10 of the molar value.
experimentalEndpoint: pIC50

Below, 5 binders whose answers are already recorded.
binder | testValue
5p-64 (VHH, class V psNb) VHH: QVQLVESGGGLVQAGGSLRLSCAASGRTFSTYAMAWFRQAPGKEREFVAGVARSADTTYYGDSVKGRFTISRDNAKNEVNLQMSSLKPEDTAVYYCAARSVIQYGIVPGNDFHYEYWGQGTQVTVSS | > 8.00
5p-180 (VHH) VHH: QVQLVESGGGLVQAGGSLRLSCVASGTISTLNAMGWYRQAPGKQRELLTSISNLGTTYSADSVKGRFTISRGNAKNTVYLQMDSLKPDDTAVYYCNTRVLEGTEYRDYWGQGTQVTVSS | > 8.00
5p-176 (VHH) VHH: EVQLVESGGRLVQAGGSLRLSCAASGRTFSTYTMAWFRQAPGKEREFVAGIARNGDTAYYSDSVKGRFTISRDNAKNEVSLQMNSLKPEDTAVYTCAARSVVQLEVVLNNPIHFEYWGQGTQVTVSS | > 8.00
4P-4 (VHH) VHH: DVQLVESGGGLVQAGDSLRLSCAASGRTFGNYVLDWFRQAPGKEREFVASITQTGFGTYYADAVKGRFTISRDNAKNTMYLQMNSLKPEDTAVYYCAADFTAQNRGIRIPRYWGQGTQVTVSS | 7.00 to 8.00
5p-126 (VHH) VHH: QVQLVESGGGLVQAGGSLRLSCAAAARFSTSAMGWFRQAPGKEREFVAAVSWSNTNTHYADTVKGRFTISADTAKETVYLQMNSLKPEDTAVYYCAQGGWGLTQPIIVDYWGKGTQVTVSS | > 8.00

Look up and report measured pIC50 for this entry: 5p-10 (VHH) VHH: QVQLVESGGGLVQAGGSLRLSCAASGRTFSSSAMGWFRQAPGKDREFVAAISPSSTNTGYTDSVKGRFTISRDNTKNTVDLQMNNLKPEDTAIYYCAADANSLRYGYSQNQGRYEYWGQGTQVTVSS
> 8.00

Look up and report measured pIC50 for this entry: 5p-6 (VHH) VHH: DVQLVESGGGLVQAGGSLRLSCAASGSTFSGNAIGWYRQAPGKQRELVATINAPGSTDYAESVKGRFTISRDNAKNTVFLQMNSLKPEDTAVYYCNVCKFLLSVLCHPGQDYWGQGTQVTVSS
> 8.00

Look up and report measured pIC50 for this entry: 5p-15 (VHH) VHH: QVQLVESGGGLVQPGDSLRLACAASGGTFGYYALGWFRQAPGKEREFVGSITQTGFGTKYADAVKGRFTISRDNAKNTMYLQMNSLKPEDTAVYYCAADPTAQNMGIRDPPYWGQGTQVTVSS
7.00 to 8.00
